# System: HepG2
# protocol text: Antiproliferative activity against human HepG2 cells after 48 hrs by MTT assay
# Type: functional, cell-based
# condition info: HepG2, 48 h
measurement name: IC50 (µg/mL)

>  <compound>
COc1ccc(/C=C/c2cc(OC)cc(OC)c2/C=C/C(=O)c2ccc(C)c(C)c2)cc1

>  <assayed target>
HepG2

>  <result unit>
µg/mL

>  <result number>
0.2

$$$$
>  <compound>
COc1ccc(/C=C/c2cc(OC)cc(OC)c2/C=C/C(=O)c2cccc(Cl)c2)cc1

>  <assayed target>
HepG2

>  <result unit>
µg/mL

>  <result number>
9.5

$$$$
>  <compound>
CCCCCCOc1ccc(C(=O)/C=C/c2c(/C=C/c3ccc(OC)cc3)cc(OC)cc2OC)cc1

>  <assayed target>
HepG2

>  <result unit>
µg/mL

>  <result number>
16.2

$$$$

[P] COc1ccc(/C=C/c2cc(OC)cc(OC)c2/C=C/C(=O)c2cccc(Br)c2)cc1
[Q] COc1ccc(/C=C/c2cc(OC)cc(OC)c2/C=C/C(=O)c2ccc(N)cc2)cc1
Lower value of IC50 belongs to which: P or Q ? API: response body contains the label of the selected item.
Q

[a] COc1ccc(/C=C/c2cc(OC)cc(OC)c2/C=C/C(=O)c2ccc(Cl)cc2)cc1
[b] COc1ccc(/C=C/c2cc(OC)cc(OC)c2/C=C/C(=O)c2ccccc2C)cc1
[c] COc1ccc(/C=C/c2cc(OC)cc(OC)c2/C=C/C(=O)c2ccc(C)cc2C)cc1
Task for the reader: rank each entry by its IC50, from the minimum upward. Use the labels to give the requested order.
c, b, a

---

# Tested on: HepG2
# protocol text: Antiproliferative activity against human HepG2 cells after 48 hrs by MTT assay
# Assay type: functional, cell-based
# condition info: HepG2, 48 h
measurement name: IC50 (µg/mL)

These solved cases illustrate the format of a correct answer.
>  <given smiles>
COc1ccc(/C=C\c2cc(OC)c(OC)c(OC)c2)cc1O

>  <assayed target>
HepG2

>  <IC50 / µg/mL>
0.19

$$$$
>  <given smiles>
COc1ccc(/C=C/c2cc(OC)cc(OC)c2/C=C/C(=O)c2ccc(F)cc2)cc1

>  <assayed target>
HepG2

>  <IC50 / µg/mL>
12.2

$$$$
>  <given smiles>
COc1ccc(/C=C/c2cc(OC)cc(OC)c2/C=C/C(=O)c2ccc(Cl)c(Cl)c2)cc1

>  <assayed target>
HepG2

>  <IC50 / µg/mL>
10.8

$$$$
>  <given smiles>
COc1ccc(/C=C/c2cc(OC)cc(OC)c2/C=C/C(=O)c2ccc(-c3ccccc3)cc2)cc1

>  <assayed target>
HepG2

>  <IC50 / µg/mL>
10.5

$$$$
>  <given smiles>
CCN(CC)c1ccc(C(=O)/C=C/c2c(/C=C/c3ccc(OC)cc3)cc(OC)cc2OC)cc1

>  <assayed target>
HepG2

>  <IC50 / µg/mL>
6.3

$$$$

[A] COc1ccc(/C=C/c2cc(OC)cc(OC)c2/C=C/C(=O)c2ccc(N3CCOCC3)cc2)cc1
[B] COc1ccc(/C=C/c2cc(OC)cc(OC)c2/C=C/C(=O)c2ccc(C(F)(F)F)cc2)cc1
Lower value of IC50 belongs to which: A or B ? API: response body contains the label of the selected item.
A
